Reported γ limiting, 0.1 b/s is given for each of the following compounds.
assay notes: Dynamic surface tension of aqueous solutions, maximum bubble pressure method
Assay type: physicochemical
condition context: saturated solution made using 1.0 wt % in water, 0.1 b/s
reported property: γ limiting, 0.1 b/s (dyne/cm)

compound | reported property | value units | quantitative result
CC(C)COCC(O)CN(CCN(CC(O)COCC(C)C)CC(O)COCC(C)C)CC(O)COCC(C)C (stereo not shown) [EDA/4 IBGE] | γ limiting, 0.1 b/s | dyne/cm | 34.8
CCCCOCC(O)CNCCCCCCN(CC(O)COCCCC)CC(O)COCCCC (stereo not shown) [HDA/3 BGE] | γ limiting, 0.1 b/s | dyne/cm | 37.9
CCCCOCC(O)CNC1CCC(CC2CCC(N(CC(O)COCCCC)CC(O)COCCCC)CC2)CC1 (stereo not shown) [PACM/3 BGE] | γ limiting, 0.1 b/s | dyne/cm | 47.9
CC(C)COCC(O)CNCCN(CC(O)COCC(C)C)CC(O)COCC(C)C (stereo not shown) [EDA/3 IBGE] | γ limiting, 0.1 b/s | dyne/cm | 33.3
CCCCC(CC)COCC(O)CNCCN (mixture of isomers) [EDA/1 EHGE] | γ limiting, 0.1 b/s | dyne/cm | 27.4
CCCCOCC(O)CN(CCN(CC(O)COCCCC)CC(O)COCCCC)CC(O)COCCCC (stereo not shown) [EDA/4 BGE] | γ limiting, 0.1 b/s | dyne/cm | 35.9
CCCCOCC(O)CNCCCOCCOCCOCCCN(CC(O)COCCCC)CC(O)COCCCC (stereo not shown) [DAPDEG/3 BGE] | γ limiting, 0.1 b/s | dyne/cm | 33.5
CCCCOCC(O)CN(CCCC(C)CN(CC(O)COCCCC)CC(O)COCCCC)CC(O)COCCCC (stereo not shown) [MPD/4 BGE] | γ limiting, 0.1 b/s | dyne/cm | 35.3
CCCCOCC(O)CNCCCOCCOCCOCCCN (stereo not shown) [DAPDEG/1 BGE] | γ limiting, 0.1 b/s | dyne/cm | 36.4
CCCCOCC(O)CNC1CCC(CC2CCC(N)CC2)CC1 (mixture of isomers) [PACM/1 BGE] | γ limiting, 0.1 b/s | dyne/cm | 43.5
CCCCC(CC)COCC(O)CN(CCN(CC(O)COCC(CC)CCCC)CC(O)COCC(CC)CCCC)CC(O)COCC(CC)CCCC (stereo not shown) [EDA/4 EHGE] | γ limiting, 0.1 b/s | dyne/cm | 44.4
CCCCOCC(O)CNCCN(CC(O)COCCCC)CC(O)COCCCC (stereo not shown) [EDA/3 BGE] | γ limiting, 0.1 b/s | dyne/cm | 34.9
CCCCOCC(O)CN(CCCOCCOCCOCCCN(CC(O)COCCCC)CC(O)COCCCC)CC(O)COCCCC (stereo not shown) [DAPDEG/4 BGE] | γ limiting, 0.1 b/s | dyne/cm | 34.2

----------
assay notes: Dynamic surface tension of aqueous solutions, maximum bubble pressure method
Format: physicochemical
condition context: 0.1 wt % in distilled water, 0.1 b/s

compound | value units | γ at 0.1 wt %, 0.1 b/s
CCCCOCC(O)CNCCN(CC(O)COCCCC)CC(O)COCCCC (stereo not drawn) [EDA/3 BGE] | dyne/cm | 37.6
CCCCC(CC)COCC(O)CNCCN (mixture of isomers) [EDA/1 EHGE] | dyne/cm | 28.6
CC(C)COCC(O)CN(CCN(CC(O)COCC(C)C)CC(O)COCC(C)C)CC(O)COCC(C)C (stereo not drawn) [EDA/4 IBGE] | dyne/cm | 37.6
CCCCOCC(O)CNCCCOCCOCCOCCCN(CC(O)COCCCC)CC(O)COCCCC (stereo not drawn) [DAPDEG/3 BGE] | dyne/cm | 38.0
CCCCOCC(O)CNC1CCC(CC2CCC(N)CC2)CC1 (mixture of isomers) [PACM/1 BGE] | dyne/cm | 44.7
CCCCOCC(O)CNCCN (racemic) [EDA/1 BGE] | dyne/cm | 46.1

----------
assay notes: Dynamic surface tension of aqueous solutions, maximum bubble pressure method
Format: physicochemical
condition context: 0.1 wt % in distilled water, 20 b/s
reported property: γ at 0.1 wt %, 20 b/s (dyne/cm)

compound | quantitative result
CCCCC(CC)COCC(O)CNCCN(CC(O)COCC(CC)CCCC)CC(O)COCC(CC)CCCC (stereo not shown) [EDA/3 EHGE] | 70.9
CCCCOCC(O)CN(CCCOCCOCCOCCCN(CC(O)COCCCC)CC(O)COCCCC)CC(O)COCCCC (stereo not shown) [DAPDEG/4 BGE] | 50.7
CCCCOCC(O)CN(CCCCCCN(CC(O)COCCCC)CC(O)COCCCC)CC(O)COCCCC (stereo not shown) [HDA/4 BGE] | 70.8
CCCCOCC(O)CNCCCOCCOCCOCCCN (stereo not shown) [DAPDEG/1 BGE] | 61.0
